Please provide measured pKd for the entries that follow.
- Test System: T1, soluble Homo sapiens CD131 comprising a C-terminal 6xHis tag (human, UniProt P32927 17-438)
- T1 construct: truncated after Ser438, C-terminal 6xHis; also called shCD131; shβc
- T1 sequence: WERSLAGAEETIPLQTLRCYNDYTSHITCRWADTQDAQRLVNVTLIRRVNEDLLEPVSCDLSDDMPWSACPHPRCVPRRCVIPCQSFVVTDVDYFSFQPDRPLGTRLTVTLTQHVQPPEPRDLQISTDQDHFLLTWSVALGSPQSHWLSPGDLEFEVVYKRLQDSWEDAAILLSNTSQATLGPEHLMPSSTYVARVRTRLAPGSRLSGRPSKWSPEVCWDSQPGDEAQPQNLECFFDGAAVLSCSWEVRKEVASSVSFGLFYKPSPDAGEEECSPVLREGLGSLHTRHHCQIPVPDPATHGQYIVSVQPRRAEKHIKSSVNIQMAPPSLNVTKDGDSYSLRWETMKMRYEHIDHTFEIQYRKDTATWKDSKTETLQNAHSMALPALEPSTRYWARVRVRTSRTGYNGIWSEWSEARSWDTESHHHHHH
- Test Name: SPR, Fab over captured shCD131
Answers are plain numbers, as −log10 of the molar value.

See these solved cases before continuing.
Fill in pKd for record 9A2-VR24 Fab (Fab, V domains shown, recombinant Fab) VH: EVQLLESGGGLVQPGGSLRLSCAASGFTFPWYRVHWVRQAPGKGLEWVSSIRSSGGFTYYADSVKGRFTISRDNSKNTLYLQMNSLRAEDTAVYYCARFYDSFFDIWGQGTMVTVSS VL: DIQMTQSPSSVSASVGDRVTITCRASQGISSWLAWYQQKPGKAPKLLIYAASSLQSGVPSRFSGSGSGTDFTLTISSLQPEDFATYYCQQANSFPITFGQGTRLEIKR
9.34

Report measured pKd; entry is 9A2-VR39.24 Fab (Fab, V domains shown, recombinant Fab) VH: EVQLLESGGGLVQPGGSLRLSCAASGFTFHHFHVIWVRQAPGKGLEWVSSINGRGRVTYYADSVKGRFTISRDNSKNTLYLQMNSLRAEDTAVYYCARFYDSFFDIWGQGTMVTVSS VL: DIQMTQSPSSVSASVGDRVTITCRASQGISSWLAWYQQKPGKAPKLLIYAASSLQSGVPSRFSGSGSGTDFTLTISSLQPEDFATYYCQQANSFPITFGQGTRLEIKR
9.77

Proceed to the following item.
Write down pKd measured for item 9A2-VR39 Fab (Fab, V domains shown, recombinant Fab) VH: EVQLLESGGGLVQPGGSLRLSCAASGFTFSHYHMLWVRQAPGKGLEWVSSINGRGRVTYYADSVKGRFTISRDNSKNTLYLQMNSLRAEDTAVYYCARFYDSFFDIWGQGTMVTVSS VL: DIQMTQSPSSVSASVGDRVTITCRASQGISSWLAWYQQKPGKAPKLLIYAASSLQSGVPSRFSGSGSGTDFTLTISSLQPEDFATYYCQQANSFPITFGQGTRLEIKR
9.57
